B1: Ribonuclease HII, O74035 (parent)
chain: MKIAGIDEAGRGPVIGPMVIAAVVVDENSLPKLEELKVRDSKKLTPKRREKLFNEILGVLDDYVILELPPDVIGSREGTLNEFEVENFAKALNSLKVKPDVIYADAADVDEERFARELGERLNFEAEVVAKHKADDIFPVVSAASILAKVTRDRAVEKLKEEYGEIGSGYPSDPRTRAFLENYYREHGEFPPIVRKGWKTLKKIAEKVESEKKAEERQATLDRYFRKV

variants of: B1; conditions: Thermococcus kodakarensis (strain ATCC BAA-918 / JCM 12380 / KOD1); pH 9; Thermal; DSC; Gly-NaOH 20 mM; reversible: Yes; structure 1IO2; whole UniProt chain shown
experimental_endpoint: unfolding enthalpy (calorimetric) (kcal/mol)
Write the answer as a number in kcal/mol, unit excluded.

Answered examples (4):
variant_identifier=D135A experimental_endpoint="unfolding enthalpy (calorimetric)" reported_measurement=147
variant_identifier=D7N experimental_endpoint="unfolding enthalpy (calorimetric)" reported_measurement=137
variant_identifier=D105A experimental_endpoint="unfolding enthalpy (calorimetric)" reported_measurement=170
variant_identifier=E8A experimental_endpoint="unfolding enthalpy (calorimetric)" reported_measurement=171

For the variant E8Q , what unfolding enthalpy (calorimetric) is on record?
158
